test system: 922993-354-T-J3-PDC complex spheroids, viability, % test/control; assay: Anticancer human tumor 922993-354-T-J3-PDC patient-derived endometrial carcinoma cell line growth inhibition [CLK]; settings: second compound 3.16 µM; first compound 10 µM; hits give low values;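 further: spheroids exposed to the agents for 7 days before readout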
Measured viability, T/C of individual entries
Form entry: value (%) — number only.

According to the records, this molecule COc1ccc([C@@H](O)c2cc(-c3ncnc4cc(N5CCOCC5)ccc34)c(F)cc2Cl)nn1 + CNC(=O)c1ccc(Nc2nc(OC3CCCC3)c3c(-c4ccc5nc(C)oc5c4)c[nH]c3n2)c(OC)c1 displays viability, T/C of 41

According to the records, this molecule COC1C=CCC(C)C(C)S(=O)(=O)NC(=O)c2ccc3c(c2)N(CC2CCC21)CC1(CCCc2cc(Cl)ccc21)CO3 (centres undefined) + CNC(=O)c1ccc(Nc2nc(OC3CCCC3)c3c(-c4ccc5nc(C)oc5c4)c[nH]c3n2)c(OC)c1 displays viability, T/C of 9.29

According to the records, this molecule COc1cccc2c1C(=O)c1c(O)c3c(c(O)c1C2=O)CC(O)(C(=O)CO)CC3OC1CC(N)C(O)C(C)O1 (centres undefined) + CN1CCN(c2cc(C(=O)Nc3cc4cc(-c5cnn(C)c5)ccc4cn3)ccn2)CC1 displays viability, T/C of 1.28

According to the records, this molecule Nc1ccccc1NC(=O)c1ccc(CNC(=O)OCc2cccnc2)cc1 + CNC(=O)c1ccc(Nc2nc(OC3CCCC3)c3c(-c4ccc5nc(C)oc5c4)c[nH]c3n2)c(OC)c1 displays viability, T/C of 6.59
